test: Plasma metabolite identification and quantitation in rats; assay type: in vivo, Wistar-Furth rat; conditions: rat, in vivo, po, 1000 mg/kg, 4 h
observable: concentration (µM)
Hi! Could you send only the number? It should be in µM, unit omitted.

*Q* Could you tell me which concentration is on file for C=C(C)[C@H]1CC=C(C)CC1 ?
*A* 90
